Test system: PC49
Test: qHTS profiling for inhibitors of Plasmodium falciparum proliferation (AID 504749);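 note: 0% = DMSO vehicle and full inhibition = artemisinin control; nearly all actives have a fitted effect of over 60% in size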
Conditions: P. falciparum in erythrocytes, SYBR Green DNA, 72 h; series mostly up to 28.7 µM
Records with an inconclusive call do not appear. Activity calls are given as the source filed them. Calls come from the whole dose curve; as a rule, active = well fitted inhibition curve with a large enough effect; inconclusive = small, poorly fitted or top-dose-only effect; inactive = flat fitted curve, though single readings scatter.
READOUT_LABEL: outcome

Worked examples, 5 compounds total:
COMPOUND: C=CC(C)(O)CC/C=C(\C)CCC=C(C)C (stereo not given)
READOUT_LABEL: outcome
VALUE_MEASURED: inactive
//
COMPOUND: Nc1ccc(N=Nc2ccccc2)c(N)n1
READOUT_LABEL: outcome
VALUE_MEASURED: inactive
//
COMPOUND: O=C(O)CC/C=C\CC[C@@H]1[C@@H](N2CCCCC2)[C@@H](O)C[C@@H]1OCc1ccc(-c2ccccc2)cc1
READOUT_LABEL: outcome
VALUE_MEASURED: inactive
//
COMPOUND: CCCCCCCCCCCCCCCCCC(=O)OC[C@@H](O)[C@H]1OC[C@H](O)[C@H]1O
READOUT_LABEL: outcome
VALUE_MEASURED: inactive
//
COMPOUND: CC(C)OC(=O)Nc1ccc2nc(-c3cscn3)[nH]c2c1
READOUT_LABEL: outcome
VALUE_MEASURED: inactive

Field: outcome. Fill in for each record below.
1. CC/C=C\C/C=C\C/C=C\C/C=C\C/C=C\C/C=C\CCC(=O)O
2. CCCCCc1ccc(C)cc1O
3. C#C[C@]1(O)CC[C@@H]2[C@H]3CCC4=CC(=O)CC[C@H]4[C@H]3C(=C)C[C@@]21CC
4. C=CC[N+]1([C@H]2C[C@H]3[C@@H]4CC[C@H]5C[C@H](O)[C@@H](N6CCOCC6)C[C@]5(C)[C@H]4CC[C@]3(C)[C@H]2OC(C)=O)CCCC1
5. O=c1n(CC2CO2)c(=O)n(CC2CO2)c(=O)n1CC1CO1 (stereo not given)

["inactive", "inactive", "inactive", "inactive", "inactive"]

* * *

Test: Drug repurposing screens with cells derived from glioblastoma tumor samples (AID 1345199); note: % is set by controls: 0 for no effect and ±100 for the full control effect; nearly all actives have a fitted effect of over 40% in size
Details: GBM patient neurospheres viability, ATP luminescence, 48 h; at 45.9 µM (top of the series); tumour line B
Results filed as inconclusive are left out.
Classify: 1 when activity, negative = cell killing is strictly less than -10%; -1 when activity, negative = cell killing is not.

Use these answered entries as a reference point.
MOLECULE: O=[n+]1ccn([O-])c2ccccc21
CAT: -1
//
MOLECULE: CC(C)=CCC/C(C)=C/C=C/C(C)=C/C=C/C(C)=C/C=C/C=C(C)/C=C/C=C(C)/C=C/C=C(\C)CCC=C(C)C
CAT: 1
//
MOLECULE: FCOC(C(F)(F)F)C(F)(F)F
CAT: 1
//
MOLECULE: O=C1c2ccccc2CN2C(=O)c3ccccc3CN12
CAT: 1

Consider the molecule CCCCCCOC(=O)c1cccnc1 . Is its activity, negative = cell killing strictly less than -10%?
-1

Take the molecule Cc1cc(C)c(NC(=O)C[C@H](CC(=O)O)c2cccc3ccccc23)c(C(=O)N2CCC3(CCCC3)CC2)c1 and say whether its activity, negative = cell killing is less than -10%.
1

Decide: activity, negative = cell killing of Oc1cccc(O)c1O strictly below -10%?
1

Determine whether this molecule shows activity, negative = cell killing lower than -10% (ties excluded): O=C(O)CCC/C=C\C[C@@H]1[C@@H](/C=C/[C@@H](O)COc2cccc(Cl)c2)[C@H](O)C[C@@H]1O
-1

Dear colleague, could you confirm whether activity, negative = cell killing of C[C@]12CCC(=O)C[C@@H]1CC[C@@H]1[C@@H]2CC[C@]2(C)C=CC[C@@H]12 falls below -10%? Thanks.
-1

In the record for NC(=O)Oc1ccc(Cc2ccccc2)cc1 , is activity, negative = cell killing less than -10%?
-1
